assay comment: Antioxidant activity against AAPH-induced DNA damage assessed as inhibition period for TBARS production
Assay type: functional
measured attribute: TIME (h)

> print(dat)
                                   compound  unit.name  result
1  COc1cc(/C=C/C(=O)CC(=O)/C=C/c2ccc(O)c(OC)c2)ccc1O          h  0.0405
2      CCOC(=O)/C(=C/c1ccc(O)c(OC)c1)C(C)=O          h  0.0137
3            COc1cc(/C=C/C(=O)CC(C)=O)ccc1O          h  0.0237
4  COc1cc(/C=C/C(O)CC(C)O)ccc1O (stereo unspecified)          h  0.0185
5               COc1cc(CCC(=O)CC(C)=O)ccc1O          h  0.0318
6           CC(=O)CC(=O)/C=C/c1ccc(O)c(O)c1          h  0.0428
